Taken from patent US20250011397A1.

target: T1, SARS-CoV-2 receptor binding domain (RBD), wild type, His-tagged (BEI NR52309) (SARS-CoV-2, UniProt P0DTC2 319-541); assay: RBD KD column; method and antibody format not stated
T1 construct: also called WT RBD
Quick rule for you: Kd under 80 nM gets Satisfied, anything else gets Not satisfied.

| Binder | Group |
| --- | --- |
| mAb 120 (antibody, V domains shown, also called IgG 120) VH: QVQLVQSGAEVKKPGASVKVSCKASGYTFTSYDINWVRQAPGQGLEWMGMIDPSGGSTSYAQKFQGRVTMTRDTSTSTVYMELSSLRSEDTAVYYCAKDFGGGTRYDYWYFDLWGRGTLVTVSS VL: EIVMTQSPATLSVSPGERATLSCRASQSVSSRYLAWYQQKPGQAPRLLIYGASTRATGIPARFSGSGSGTEFTLTISSLQSEDFAVYYCQQYYTTPRTFGQGTRLEIKR | Satisfied |
| mAb 349 (antibody, V domains shown, also called IgG 349) VH: EVQLLESGGGLVQPGGSLRLSCAASGFTFSNYGMHWVRQAPGKGLEWVSGISSAGSITNYADSVKGRFTISRDNSKNTLYLQMNSLRAEDTAVYYCAGNHAGTTVTSEYFQHWGQGTLVTVSS VL: DIQMTQSPSSLSASVGDRVTITCRASQSISSWLAWYQQKPGKAPKLLIYDTSNLETGVPSRFSGSGSGTDFTLTISSLQPEDFATYYCQQSYTTPWTFGQGTRLEIKR | Satisfied |
| mAb 324 (antibody, V domains shown, also called IgG 324) VH: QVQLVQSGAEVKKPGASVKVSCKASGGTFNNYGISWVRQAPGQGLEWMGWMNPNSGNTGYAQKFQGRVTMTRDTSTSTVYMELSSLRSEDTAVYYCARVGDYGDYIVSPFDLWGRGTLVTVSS VL: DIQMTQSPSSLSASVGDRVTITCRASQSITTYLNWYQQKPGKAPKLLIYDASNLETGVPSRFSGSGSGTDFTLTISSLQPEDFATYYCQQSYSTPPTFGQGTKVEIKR | Not satisfied |
| mAb 64 (antibody, V domains shown, also called IgG 64) VH: EVQLLESGGGLVQPGGSLRLSCAASGFPFSQHGMHWVRQAPGKGLEWVSAIDRSGSYIYYADSVKGRFTISRDNSKNTLYLQMNSLRAEDTAVYYCARDTYGGKVTYFDYWGQGTLVTVSS VL: DIQMTQSPSSLSASVGDRVTITCRASQGISSHLAWYQQKPGKAPKLLIYDASNLETGVPSRFSGSGSGTDFTLTISSLQPEDFATYYCQQTYSTPWTFGQGTKVEIKR | Not satisfied |
| mAb 46 (antibody, V domains shown, also called IgG 46; antibody 46) VH: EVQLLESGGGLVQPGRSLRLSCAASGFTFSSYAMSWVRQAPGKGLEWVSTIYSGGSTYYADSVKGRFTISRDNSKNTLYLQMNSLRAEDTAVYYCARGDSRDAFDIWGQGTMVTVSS VL: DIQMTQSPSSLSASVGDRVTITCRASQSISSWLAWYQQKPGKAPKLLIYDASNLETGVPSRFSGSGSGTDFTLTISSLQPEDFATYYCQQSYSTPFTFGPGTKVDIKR | Not satisfied |
